Tested Target: K^b/β2m (Mus musculus)
Construct: The TDTF analysis was performed on the luminal domain of K^b, which was produced in E.coli; made in house
Sequence (P01901 22-305 limits assumed): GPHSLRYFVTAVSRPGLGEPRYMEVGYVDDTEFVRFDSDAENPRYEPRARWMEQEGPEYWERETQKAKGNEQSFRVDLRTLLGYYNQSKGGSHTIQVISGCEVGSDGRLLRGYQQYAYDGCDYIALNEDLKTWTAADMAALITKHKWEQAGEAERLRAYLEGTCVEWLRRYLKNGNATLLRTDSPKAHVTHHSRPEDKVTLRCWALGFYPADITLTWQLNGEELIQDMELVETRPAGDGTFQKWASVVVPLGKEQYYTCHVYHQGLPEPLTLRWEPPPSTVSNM
Sequence (P61769 21-119 partner): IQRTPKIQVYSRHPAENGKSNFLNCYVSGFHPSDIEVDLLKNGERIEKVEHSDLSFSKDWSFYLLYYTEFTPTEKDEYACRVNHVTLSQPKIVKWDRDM
Assay Comment: Competitive binding against SIINFEKTAMRAL measured by fluorescence anisotropy (IC50)
Parameters: species or system murine
Assay Setup: K^b/β2m folded empty, incubated 5 min with peptide, then 100 nM SIINFEKTAMRAL; fluorescence anisotropy endpoint; average of three experiments; read-out: IC50, inhibition of SIINFEKTAMRAL binding
Ends that are not written are not given here.
Reported Metric: pIC50
// returns pIC50 (minus log10 of molar concentration), number only

Recorded result, `SIINFEKA` , pIC50: 6.92

###

Tested Target: K^b/β2m (Mus musculus)
Construct: The TDTF analysis was performed on the luminal domain of K^b, which was produced in E.coli; made in house
Assay Comment: Competitive binding against SIINFEKTAMRAL measured by fluorescence anisotropy (IC50)
Set-up: species or system murine
Ends that are not written are not given here.
// values below are reported IC50
Expressed in µM, but write only the number.

residue_sequence=FAPGNYPA reported_metric=IC50 test_result=18

The record that follows has no IC50 shown yet.
Note to self: IC50 recorded for APGNYPAL [APGNYPAL] was 0.15
